Readings of total CFTR intensity for the listed molecules
biological target: Cystic fibrosis transmembrane conductance regulator (Homo sapiens); assay: F508del-CFTR plasma membrane relocalization enhancers – imaging, HeLa, high-content microscopy, immunofluorescence, primary screen (AID 1224864); conditions: PM immunofluorescence imaging, 24 h, at 10 µM, stronger effect = higher value; measured here: total cellular F508del-CFTR signal unless noted;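 also: HeLa cells stably expressing F508del-CFTR stained with 3G11 antibody against NBD1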
Screen size: about 2,000 compounds; about 20 (1%) were called active. The sample holds actives, similar compounds and a random draw of the others, so the mix is not that of the screen.
Respond numerically; units are % and should not be typed.

{"molecule": "CC(C)C(=O)Nc1ccc(S(=O)(=O)N2CC3CC(C2)c2cccc(=O)n2C3)cc1 (stereo unspecified)", "units": "%", "observed": 96}
{"molecule": "CN1CCN(CCCN2c3ccccc3Sc3ccc(Cl)cc32)CC1", "units": "%", "observed": 48}
{"molecule": "CC[C@@H](CO)NC(=O)[C@@H]1C=C2c3cccc4c3c(cn4C)C[C@H]2N(C)C1", "units": "%", "observed": 76}

Okay, now this molecule:
Identify measured total CFTR intensity associated with `CC(C)[C@@]1(NC(=O)[C@@H]2C[C@@H]3c4cccc5[nH]cc(c45)C[C@H]3N(C)C2)O[C@@]2(O)[C@@H]3CCCN3C(=O)[C@H](Cc3ccccc3)N2C1=O`
49

###

biological target: Cystic fibrosis transmembrane conductance regulator (Homo sapiens) (UniProt P13569); assay: F508del-CFTR plasma membrane relocalization enhancers – imaging, HeLa, high-content microscopy, immunofluorescence, primary screen (AID 1224864); settings: PM immunofluorescence imaging, 24 h, at 10 µM;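 also: HeLa cells stably expressing F508del-CFTR stained with 3G11 antibody against NBD1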
Sequence (P13569 whole entry, looked up, stated change not applied): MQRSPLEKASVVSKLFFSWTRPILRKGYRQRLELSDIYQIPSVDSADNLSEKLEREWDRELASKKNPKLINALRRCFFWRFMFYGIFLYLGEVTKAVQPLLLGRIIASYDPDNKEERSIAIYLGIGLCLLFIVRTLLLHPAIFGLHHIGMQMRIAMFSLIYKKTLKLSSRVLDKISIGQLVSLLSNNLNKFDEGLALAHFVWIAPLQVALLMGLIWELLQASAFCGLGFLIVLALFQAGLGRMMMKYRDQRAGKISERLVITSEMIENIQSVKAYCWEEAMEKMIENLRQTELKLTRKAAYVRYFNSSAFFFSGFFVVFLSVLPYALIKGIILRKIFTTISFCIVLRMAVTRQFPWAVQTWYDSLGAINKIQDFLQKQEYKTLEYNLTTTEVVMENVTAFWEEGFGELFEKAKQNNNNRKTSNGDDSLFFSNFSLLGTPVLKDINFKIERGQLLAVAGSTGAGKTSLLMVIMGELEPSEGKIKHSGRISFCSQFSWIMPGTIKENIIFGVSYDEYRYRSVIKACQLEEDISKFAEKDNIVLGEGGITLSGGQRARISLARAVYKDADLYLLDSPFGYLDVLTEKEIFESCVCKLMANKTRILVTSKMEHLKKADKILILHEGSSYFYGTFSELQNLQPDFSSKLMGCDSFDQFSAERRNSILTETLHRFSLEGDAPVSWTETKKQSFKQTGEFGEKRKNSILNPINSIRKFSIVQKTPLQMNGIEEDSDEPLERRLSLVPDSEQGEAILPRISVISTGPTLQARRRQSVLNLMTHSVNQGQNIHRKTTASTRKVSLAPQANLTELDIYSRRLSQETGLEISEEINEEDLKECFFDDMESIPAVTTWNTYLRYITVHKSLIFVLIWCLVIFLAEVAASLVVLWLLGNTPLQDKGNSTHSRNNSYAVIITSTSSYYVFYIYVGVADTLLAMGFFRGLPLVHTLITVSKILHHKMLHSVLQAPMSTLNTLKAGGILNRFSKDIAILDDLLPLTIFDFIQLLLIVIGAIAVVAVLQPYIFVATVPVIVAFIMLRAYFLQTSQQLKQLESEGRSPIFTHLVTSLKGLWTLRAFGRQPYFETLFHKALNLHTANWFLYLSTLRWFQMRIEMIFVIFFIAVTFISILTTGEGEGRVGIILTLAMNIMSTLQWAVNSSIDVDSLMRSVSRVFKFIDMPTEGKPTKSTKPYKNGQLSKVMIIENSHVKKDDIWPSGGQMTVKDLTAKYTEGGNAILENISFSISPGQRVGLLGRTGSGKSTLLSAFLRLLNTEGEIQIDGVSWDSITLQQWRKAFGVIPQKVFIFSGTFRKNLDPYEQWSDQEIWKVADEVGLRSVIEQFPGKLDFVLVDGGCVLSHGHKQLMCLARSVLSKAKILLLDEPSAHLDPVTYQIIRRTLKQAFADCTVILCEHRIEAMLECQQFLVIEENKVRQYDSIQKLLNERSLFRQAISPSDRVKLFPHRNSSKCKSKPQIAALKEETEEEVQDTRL
In all, about 2,000 compounds went through this assay and about 20 (1%) were called active. The rule behind the calls is not given here. This excerpt belongs to a sample that is enriched for actives.
Thanks in advance; please answer with one of these: 1 (yes) = active, 0 (no) = inactive

// known answers, use as guide
{"compound": "C[C@@]1(CO)[C@H](O)CC[C@@]2(C)[C@H]1CC[C@H]1C[C@@H]3C[C@@]12CC[C@]3(O)CO", "assigned-category": "0 (no)"}
{"compound": "CC(C)C(=O)Nc1ccc(S(=O)(=O)N2CC3CC(C2)c2cccc(=O)n2C3)cc1 (stereo unspecified)", "assigned-category": "0 (no)"}
{"compound": "CC12CC[C@H]3[C@@H](CCC4(O)C[C@H](O)CCC34/C=N/NC(=O)Cc3ccccc3)C1(O)CCC2C1=CC(=O)OC1 (stereo partly specified)", "assigned-category": "0 (no)"}
{"compound": "Clc1ccc(C2NCCc3nc[nH]c32)cc1 (stereo unspecified)", "assigned-category": "0 (no)"}
{"compound": "COP(=O)(OC)C(O)C(Cl)(Cl)Cl (stereo unspecified)", "assigned-category": "0 (no)"}

Tell me the assay call for CC(C)C[C@H]1C(=O)N2CCCC2[C@]2(O)O[C@](NC(=O)[C@@H]3C=C4c5cccc6[nH]cc(c56)CC4N(C)C3)(C(C)C)C(=O)N12 (stereo partly specified) please.
1 (yes)
